Target: CDK2/Cyclin E complex (Homo sapiens)
Test: CDK2/Cyclin E fluorescence-based microfluidic mobility shift assay (CDK2 Biochemical Caliper Assay)
Conditions: read-out: Biochemical CDK2/CyclinE Caliper IC50
Each entry below carries its reported IC50.
parameter: IC50

compound: COCc1cc(C(=O)Nc2cc([C@@H]3CC[C@H](Oc4cc(C(C)C)cnn4)C3)[nH]n2)n(C)n1 (single isomer, unassigned)
parameter: IC50
result: 0.1 to 0.25 µM
//
compound: CC(C)NC(=O)OC[C@H]1C[C@@H](c2cc(Nc3nccc4ncsc34)n[nH]2)C1
parameter: IC50
result: ≤ 0.1 µM
//
compound: COCc1cc(C(=O)Nc2cc([C@@H]3CC[C@H](Oc4cncnc4)C3)[nH]n2)n(C)n1 (single isomer, unassigned)
parameter: IC50
result: 1 to 100 µM
//
compound: Cc1cc(CC(=O)Nc2cc([C@H]3C[C@@H](OC(=O)NC4(C)CC4)CO3)[nH]n2)on1 (single isomer, unassigned)
parameter: IC50
result: ≤ 0.1 µM
//
compound: Cc1ccc(O[C@@H]2CC[C@H](c3cc(NC(=O)Cc4cc(C)no4)n[nH]3)C2)cn1 (single isomer, unassigned)
parameter: IC50
result: 1 to 100 µM
//
compound: COCc1cc(C(=O)Nc2cc([C@H]3C[C@@H](CC(=O)NC(C)C)C3)[nH]n2)n(C)n1
parameter: IC50
result: 1 to 100 µM
